Assignment: determine reported growth, % of control at 10 µM for the given compounds.
tested on: MCF7; test: Growth inhibition of human MCF7 cells assessed as cell growth at 10 uM by sulforhodamine B assay relative to control; values are per cent of control

# QUERY_SMILES, RESULT
data = [
    ("COc1ccc(C(=O)/C=C/c2ccc(/C=C/c3ccc(F)cc3)cc2)cc1", "93.9%"),
]

Value sought for every listed compound: growth, % of control at 10 µM.
1. COc1ccc(/C=C/c2ccc(/C=C/C(=O)c3ccc(Cl)cc3)cc2)cc1
2. COc1ccc(C(=O)/C=C/c2ccc(/C=C/c3cc(OC)c(OC)c(OC)c3)cc2)cc1
3. COc1ccc(C(=O)/C=C/c2ccc(/C=C/c3ccc(Cl)cc3)cc2)cc1

Reply text:
1. 89.5%
2. 30.6%
3. 93%

----------
tested on: HT-29; experiment: Growth inhibition of human HT-29 cells assessed as cell growth at 10 uM by sulforhodamine B assay relative to control; values are per cent of control
ASSAY_METRIC: growth, % of control at 10 µM (%)
One number for each entry, in %.

Study these solved cases before continuing.
# QUERY_SMILES, growth, % of control at 10 µM [%]
measured = [
    ("COc1ccc(C(=O)/C=C/c2ccc(/C=C/c3cc(OC)c(OC)c(OC)c3)cc2)cc1", 36.2),
    ("COc1ccc(C(=O)/C=C/c2ccc(/C=C/c3ccc(F)cc3)cc2)cc1", 104),
    ("COc1ccc(C(=O)/C=C/c2ccc(/C=C/c3ccc(Cl)cc3)cc2)cc1", 104),
]

Lab note: next compound to report on.
Inquiry: State the recorded growth, % of control at 10 µM for this entry: `COc1ccc(/C=C/c2ccc(/C=C/C(=O)c3ccc(Cl)cc3)cc2)cc1`
Reply text: 93

----------
system: RPMI-8226; assay: Growth inhibition of human RPMI8226 cells assessed as cell growth at 10 uM by sulforhodamine B assay relative to control; values are per cent of control
ASSAY_METRIC: growth, % of control at 10 µM (%)
Give bare numbers, in %.

# QUERY_SMILES, ASSAY_METRIC, UNITS_OF_MEASURE, NUMERIC_VALUE
records = [
    ("COc1ccc(C(=O)/C=C/c2ccc(/C=C/c3ccc(Cl)cc3)cc2)cc1", "growth, % of control at 10 µM", "%", 102),
]

Value sought for every listed compound: growth, % of control at 10 µM.
1. COc1ccc(C(=O)/C=C/c2ccc(/C=C/c3ccc(F)cc3)cc2)cc1
2. COc1ccc(C(=O)/C=C/c2ccc(/C=C/c3cc(OC)c(OC)c(OC)c3)cc2)cc1
3. COc1ccc(/C=C/c2ccc(/C=C/C(=O)c3ccc(Cl)cc3)cc2)cc1

Reply text:
104
-0.63
99.2

----------
tested on: MDA-MB-435; test: Growth inhibition of human MDA-MB-435 cells assessed as cell growth at 10 uM by sulforhodamine B assay relative to control; values are per cent of control
Assignment: determine reported growth, % of control at 10 µM for the given molecules.

# QUERY_SMILES, ASSAY_METRIC, RESULT
measured = [
    ("COc1ccc(C(=O)/C=C/c2ccc(/C=C/c3ccc(F)cc3)cc2)cc1", "growth, % of control at 10 µM", "98.9%"),
]

Value sought for every listed molecule: growth, % of control at 10 µM.
1. COc1ccc(C(=O)/C=C/c2ccc(/C=C/c3ccc(Cl)cc3)cc2)cc1
2. COc1ccc(C(=O)/C=C/c2ccc(/C=C/c3cc(OC)c(OC)c(OC)c3)cc2)cc1
3. COc1ccc(/C=C/c2ccc(/C=C/C(=O)c3ccc(Cl)cc3)cc2)cc1

Reply text:
1. 103%
2. 41%
3. 95.3%
